meta.source: PubChem BioAssay AID1159580

protocol.summary: chemical genetic growth profiling, strain panel (AID 1159580);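 further: tested at 20 µM; growth read once vehicle control cultures reached saturation at 30 °C; 1 = growth at the plate median or of vehicle wells; lower values mean less growth of the strain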
test.parameters: S. cerevisiae deletion strains, growth OD, locus YER110C, hits give low values
Screen size: about 5,500 compounds; about 2,000 (36%) were called active. Roughly 18% stayed inconclusive and do not appear here. The list shows a part of the results. Where a SMILES comes first, the peptide text is derived from it.
observation.type: normalized growth
Form: value (number only, do not type unit).

compound | normalized growth
CCOC(=O)[C@H](CCc1ccccc1)N[C@@H](C)C(=O)N1Cc2ccccc2C[C@H]1C(=O)O | 1.01
C[C@@H]1CC2C3C[C@H](F)C4=CC(=O)C=C[C@]4(C)[C@@]3(F)[C@@H](O)C[C@]2(C)[C@@]1(O)C(=O)COC(=O)C(C)(C)C (some centres undefined) | 1.02
NC(N)=NCCCC(NC(=O)C(N)Cc1ccc(O)cc1)C(=O)O (centres undefined) | 0.971

Kindly consider the entry below.
Qu. Report normalized growth for NCCCCC(N)C(=O)NC(Cc1ccc(O)cc1)C(=O)NC(CCCCN)C(=O)O (stereo not drawn) (H-Lys-Tyr-Lys-OH; configuration not given here) please.
Ans. 0.987
